What log10(TGI) was measured for each of the following?
System: RXF 393 renal
Assay Text: NCI tumour cell line growth inhibition, 48 h
Hi team, quick reminder: these entries are log10 of TGI (µM).

Consider the compound O=c1[nH]c(=O)n(C2COC(CO)C2O)cc1F (stereo unspecified) . State its measured log10(TGI).
1.78

Consider the compound c1ccc(-c2n(Cc3ccc4ccccc4n3)cc[n+]2Cc2ccc3ccccc3c2)cc1 . State its measured log10(TGI).
0.53

Consider the compound Cc1ccc(S(=O)(=O)N2C3C=CC(C3)[C@@H]2C(Cl)(Cl)Cl)cc1 (stereo partly specified) . State its measured log10(TGI).
1.62

Consider the compound CSC(=O)c1sc(SC)[n+](-c2ccccc2)c1O . State its measured log10(TGI).
1.45

Consider the compound CC(=C(c1ccc(OCCN2CCCCC2)cc1)c1ccc(OCCN2CCCCC2)cc1)c1ccc(Cl)cc1 . State its measured log10(TGI).
-0.13

Consider the compound CN1C(=O)C(=O)N2c3ccc(Cl)cc3C3(c4ccccc4)N=CC12O3 (stereo unspecified) . State its measured log10(TGI).
0.80
